Organism: Rattus norvegicus
Test protocol: Competitive antagonist activity on oxytocin contractile action in isolated rat uterus
Type: functional
Recorded conditions: read-out: pA2 (converted)
Numbered stars: 1 amine (or outer) side, 2 acyl side, 3 side chain; on linkers, the order of the positions; unused ones are H or OH. Bridge positions count the residues as written; N and C are the ends. Peptide text beside a SMILES is read from it. X1 = O=C(CC1(S[*:2])CCCCC1)[*:1]
Observable: log10 of Kb (log10 of the value in µM)
Plainly stated, the numbers are log10 of Kb given in µM.

Compound: CC[C@H](C)[C@@H]1NC(=O)[C@H](Cc2c[nH]c3ccccc23)NC(=O)CC2(CCCCC2)SSC[C@@H](C(=O)N2CCC[C@H]2C(=O)N[C@@H](CCCN=C(N)N)C(=O)NCC(N)=O)NC(=O)[C@H](CC(N)=O)NC(=O)[C@H](CCC(N)=O)NC1=O (WIQNCPRG-NH2; linker N-5 via X1)
log10 of Kb: -0.50
//
Compound: CC[C@H](C)[C@H](NC(=O)[C@@H](Cc1c[nH]c2ccccc12)NC(=O)[C@H](Cc1c[nH]c2ccccc12)NC(C)=O)C(=O)N[C@@H](CCC(N)=O)C(=O)N[C@@H](CC(N)=O)C(=O)N[C@H](C(=O)N1CCC[C@H]1C(=O)N[C@@H](CCCN=C(N)N)C(=O)NCC(N)=O)C(C)C
log10 of Kb: 0.57
//
Compound: CC[C@H](C)[C@@H]1NC(=O)[C@@H](Cc2c[nH]c3ccccc23)NC(=O)CC2(CCCCC2)SSC[C@@H](C(=O)N2c3ccccc3C[C@H]2C(=O)N[C@@H](CCCN=C(N)N)C(=O)NCC(N)=O)NC(=O)[C@H](CC(N)=O)NC(=O)[C@H](CCC(N)=O)NC1=O
log10 of Kb: -1.92
//
Compound: CC[C@H](C)[C@@H]1NC(=O)[C@@H](Cc2c[nH]c3ccccc23)NC(=O)CC2(CCCCC2)SSC[C@@H](C(=O)N2CCC[C@H]2C(=O)N[C@@H](CCCN=C(N)N)C(=O)N[C@@H](Cc2cn(C=O)c3ccccc23)C(N)=O)NC(=O)[C@H](CC(N)=O)NC(=O)[C@H](CCC(N)=O)NC1=O
log10 of Kb: -1.67

Proceeding to the next compound to report its log10 of Kb.
(Q) Value lookup for log10 of Kb; key = CC[C@H](C)[C@H](NC(=O)[C@@H](Cc1c[nH]c2ccccc12)NC(=O)CC12CC3CC(CC(C3)C1)C2)C(=O)N[C@@H](CCC(N)=O)C(=O)N[C@@H](CC(N)=O)C(=O)N[C@H](C(=O)N1CCC[C@H]1C(=O)N[C@@H](CCCN=C(N)N)C(=O)NCC(N)=O)C(C)C
(A) 0.63
